Read-out: Transforming growth factor beta 1 (TGFb1), TGFB1 (gene 7040)
test protocol: BSK_BE3C_TGFb1: BioMAP Diversity Plus: BE3C Assay for Transforming growth factor beta 1 (TGFb1) Biomarker Activity (AID 2283036)
applied conditions: primary human bronchial epithelial cells; actives raise or lower the signal
The source made the active and inactive calls. The calls were made as follows: active = hit-call score of the fitted dose curve at least 0.9, where 1 is the maximum; inactive = score below 0.9.
endpoint name: AC50

1) C[C@]12CC[C@@H]3c4ccc(O)cc4CC[C@H]3[C@@H]1CCC2=O; inactive
2) CCCCOC(=O)c1ccc(O)cc1; inactive
3) CCN(CC)C(=O)c1cc(S(=O)(=O)Cc2ccccc2)c(N2CCC(c3ccccc3)CC2)cc1N(CC)CCN(C)C; 9.99 µM (active)
4) Cc1cc2c(cc1C(F)(F)F)N(C(=O)Nc1ccc(Oc3cccnc3C)nc1)CC2; inactive
5) CN1C(=O)N(c2ccccc2Br)Cc2cnc(Nc3ccc4c(c3)OCC(CO)O4)nc21 (centres undefined); 20 µM (active)
6) O=C(O)Cc1cc(I)c(Oc2ccc(O)c(I)c2)c(I)c1; inactive
7) O=C(Nc1ccc(Cl)cc1)Nc1ccc(Cl)c(Cl)c1; inactive
8) Cc1c2ccccc2c(C)c2c1ccc1ccccc12; 6.06 µM (active)
9) O=C1O[C@H]([C@@H](O)CO)C(O)=C1O; inactive
10) O=C(OCCCCCCOC(=O)c1ccccc1)c1ccccc1; inactive
11) CCCCCCCCOc1ccc(C(=O)c2ccccc2)c(O)c1; inactive
12) COc1cccc([C@H](O)C2CCN(CCc3ccc(F)cc3)CC2)c1OC; inactive
13) O=C1c2ccccc2C(=O)N1CCc1noc(-c2ccc(CN3CCCCCC3)s2)n1; inactive
14) CN(C)c1ccc(C(=C2C=CC(=[N+](C)C)C=C2)c2ccc(N(C)C)cc2)cc1; 0.73 µM (active)
15) Cc1cccc2ccccc12; inactive
16) CCCCCCCCN(C)CCCCCCCC; inactive
17) NC(=O)c1nc(-c2cccc(-c3cc(F)ccc3OCC(F)(F)C(F)(F)F)c2)n[nH]1; 33 µM (active)
18) COCC(C)OCC(C)OCC(C)O (centres undefined); inactive
19) Cc1oc2c(NC(=O)c3c(Cl)cccc3Cl)cccc2c1C(C)(C)O; inactive
20) CCCOC(=O)c1cc(O)c(O)c(O)c1; inactive
21) O=C(O)c1ccccc1C(=O)OCc1ccccc1; inactive
22) COc1ccc2cc(S(=O)(=O)N[C@H](CC(=O)N[C@H](Cc3ccc(CN4[C@H](C)CCC[C@@H]4C)cc3)C(=O)N(C)C(C)C)c3ccc4c(c3)OCO4)ccc2c1; inactive
23) Cc1cc(F)ccc1-c1cc(N2CC[C@@H](O)[C@H]2CO)ncc1N(C)C(=O)C(C)(C)c1cc(C(F)(F)F)cc(C(F)(F)F)c1; 11.5 µM (active)
24) O=c1[nH]sc2ccccc12; 20 µM (active)
25) CC(C)(c1cc(Br)c(O)c(Br)c1)c1cc(Br)c(O)c(Br)c1; 5.15 µM (active)
26) CCCCCCCCCC(=O)O; inactive
27) Cc1cn([C@H]2C[C@H](N=[N+]=[N-])[C@@H](CO)O2)c(=O)[nH]c1=O; inactive
28) CC(=O)N1CCN(c2ccc(OC[C@H]3CO[C@](Cn4ccnc4)(c4ccc(Cl)cc4Cl)O3)cc2)CC1; inactive
29) CCCC(=O)OCCC(C)C; inactive
30) CC1(C)NC(=O)N(c2ccc([N+](=O)[O-])c(C(F)(F)F)c2)C1=O; inactive
31) CC(O)CC(C)(C)O (centres undefined); inactive
32) Oc1ccc2ccccc2c1; inactive
33) OC12N=C(c3ccccc3)SC1Cc1cc(Cl)ccc12 (centres undefined); inactive
34) C[C@]12CC[C@@H]3c4ccc(O)cc4CC[C@H]3[C@@H]1CC[C@H]2O; inactive
35) O=C=NCCCCCCN=C=O; inactive
36) CCCCCCCCOC(=O)c1cc(O)c(O)c(O)c1; 27.2 µM (active)
37) O=CCCCC=O; inactive
38) CC(C)(C)c1csc(-c2cc3cc(OCc4ccccc4CC(=O)O)ccc3o2)n1; inactive
39) CC(C)(C)c1cc(/C=C2\SC(N)=NC2=O)cc(C(C)(C)C)c1O; inactive
40) CC/C(=C(/CC)c1ccc(O)cc1)c1ccc(O)cc1; 6.47 µM (active)
41) CC[C@@H]1C[C@H](N(Cc2cc(C(F)(F)F)cc(C(F)(F)F)c2)C(C)=O)c2cc(C(F)(F)F)ccc2N1C(=O)OC(C)C; inactive
42) CCOC(=O)O[C@H](C)OC(=O)c1ccc2c(c1)cc(C(=O)NC1CCN(C(C)C)CC1)n2Cc1cc(-c2ccc(Cl)s2)on1; 11.8 µM (active)
43) Oc1ccccc1; inactive
44) Clc1cc(Cl)c2c(c1)N=C1CCCCCN1C2; inactive

---

study target: human Norepinephrine Transporter (NET), SLC6A2 (gene 6530) (UniProt P23975)
Sequence (P23975 whole entry, looked up): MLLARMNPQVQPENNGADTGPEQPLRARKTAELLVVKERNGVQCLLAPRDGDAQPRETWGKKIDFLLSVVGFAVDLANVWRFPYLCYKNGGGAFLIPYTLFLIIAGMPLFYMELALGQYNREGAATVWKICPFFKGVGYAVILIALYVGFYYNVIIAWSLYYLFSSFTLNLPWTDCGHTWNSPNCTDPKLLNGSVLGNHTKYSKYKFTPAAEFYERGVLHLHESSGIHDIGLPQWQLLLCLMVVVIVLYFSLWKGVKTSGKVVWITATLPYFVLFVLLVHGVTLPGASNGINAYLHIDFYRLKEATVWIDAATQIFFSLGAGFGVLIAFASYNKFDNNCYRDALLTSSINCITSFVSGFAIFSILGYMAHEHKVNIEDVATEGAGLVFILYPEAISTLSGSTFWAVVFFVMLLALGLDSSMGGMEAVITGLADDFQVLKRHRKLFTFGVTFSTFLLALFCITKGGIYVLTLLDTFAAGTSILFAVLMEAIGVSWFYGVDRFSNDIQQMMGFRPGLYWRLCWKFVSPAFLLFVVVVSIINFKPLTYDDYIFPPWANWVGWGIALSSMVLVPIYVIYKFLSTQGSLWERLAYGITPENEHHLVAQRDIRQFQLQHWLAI
test protocol: NVS_TR_hNET: NovaScreen (NVS) Transporter Assay for human Norepinephrine Transporter (NET) (AID 2283377);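 also: cell-free membrane protein extracted from CHO cells expressing human NET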
Results filed as inconclusive are left out. Calls of active or inactive are those of the source. How the source made its calls: active means hit-call score of the fitted dose curve at least 0.9, where 1 is the maximum; inconclusive means response in the unintended direction; inactive means score below 0.9.
Outcomes: active, inactive

1. CN(C[C@@H](CC[N+]12CCC(C3CCCCC3)(CC1)CC2)c1ccc(Cl)c(Cl)c1)C(=O)c1cc(C(F)(F)F)cc(C(F)(F)F)c1; active
2. Cc1cc(F)ccc1-c1cc(N2CC[C@@H](O)[C@H]2CO)ncc1N(C)C(=O)C(C)(C)c1cc(C(F)(F)F)cc(C(F)(F)F)c1; active
3. O=C1c2ccccc2C(=O)N1CCc1noc(-c2ccc(CN3CCCCCC3)s2)n1; active
4. Oc1ccc2ccccc2c1; active
5. CCN(CC)C(=O)c1cc(S(=O)(=O)Cc2ccccc2)c(N2CCC(c3ccccc3)CC2)cc1N(CC)CCN(C)C; active
6. CN1C(=O)N(c2ccccc2Br)Cc2cnc(Nc3ccc4c(c3)OCC(CO)O4)nc21 (stereo not given); active
7. COc1cc(C(=O)NC2CCN(C)CC2)ccc1Nc1ncc2c(n1)N(C1CCCC1)CC(F)(F)C(=O)N2C; active
8. O=C(Nc1ccc(Cl)cc1)Nc1ccc(Cl)c(Cl)c1; inactive
9. CN(C)C(=O)C1(N2CCCCC2)CCN(CC[C@@]2(c3ccc(Cl)c(Cl)c3)CN(C(=O)c3ccccc3)CCO2)CC1; active
10. CN(C)c1ccc(C(=C2C=CC(=[N+](C)C)C=C2)c2ccc(N(C)C)cc2)cc1; active
11. O=C(OCCCCCCOC(=O)c1ccccc1)c1ccccc1; inactive
12. NCc1cccc(C2CCN(C(=O)c3ccc(C#Cc4ccccc4F)o3)CC2)c1; active
13. CCCCCCCCOC(=O)c1cc(O)c(O)c(O)c1; active
14. CCCCOC(=O)c1ccc(O)cc1; active
15. Clc1ccccc1C(c1ccccc1)(c1ccccc1)n1ccnc1; inactive

---

test protocol: ATG_GAL4_TRANS: Attagene TRANS-FACTORIAL HepG2 Assay for GAL4 (Internal Marker) (AID 2282976)
applied conditions: HepG2 Attagene TRANS GAL4 internal marker reporter
Results filed as inconclusive are left out. Activity calls are given as the source filed them. How the source made its calls: active means hit-call score of the fitted dose curve at least 0.9, where 1 is the maximum; inconclusive means response in the unintended direction; inactive means score below 0.9.
endpoint name: outcome

1) O=C(O)Cc1cc(I)c(Oc2ccc(O)c(I)c2)c(I)c1; inactive
2) COc1cccc([C@H](O)C2CCN(CCc3ccc(F)cc3)CC2)c1OC; inactive
3) CC(O)CC(C)(C)O (configuration not stated); inactive
4) CN1C(=O)CC[C@H]1c1cccnc1; inactive
5) O=C(O)c1ccccc1C(=O)OCc1ccccc1; inactive
6) O=C1CCC(C2CCCCC2)CC1; inactive
7) CCCCOC(=O)c1ccc(O)cc1; inactive

---

test protocol: BSK_3C_VCAM1: BioMAP Diversity Plus: 3C Assay for Vascular cell adhesion molecule 1 (VCAM1) Biomarker Activity (AID 2282999)
applied conditions: BioMAP 3C HUVEC, VCAM1 ELISA, cytokine-stimulated; actives raise or lower the signal
Calls of active or inactive are those of the source. The calls were made as follows: active = hit-call score of the fitted dose curve at least 0.9, where 1 is the maximum; inactive = score below 0.9.
Outcomes: active, inactive

1) O=C1CCC(C2CCCCC2)CC1; inactive
2) CC1(C)NC(=O)N(c2ccc([N+](=O)[O-])c(C(F)(F)F)c2)C1=O; inactive
3) CC(=O)N1CCN(c2ccc(OC[C@H]3CO[C@](Cn4ccnc4)(c4ccc(Cl)cc4Cl)O3)cc2)CC1; inactive
4) Cc1c2ccccc2c(C)c2c1ccc1ccccc12; active
5) CCCOC(=O)c1cc(O)c(O)c(O)c1; inactive
6) CCCCOC(=O)c1ccc(O)cc1; inactive

---

test protocol: CCTE_Shafer_MEA_dev_network_spike_peak: CCTE's Neural Network Formation Assay for Mean Number of Electrodes in Network Spike, Shafer Lab (AID 2284049)
The source made the active and inactive calls. The calls were made as follows: active = hit-call score of the fitted dose curve at least 0.9, where 1 is the maximum; inactive = score below 0.9.
endpoint name: outcome

1) CC(C)(c1cc(Br)c(O)c(Br)c1)c1cc(Br)c(O)c(Br)c1; inactive
2) O=C1O[C@H]([C@@H](O)CO)C(O)=C1O; inactive
3) Oc1ccccc1; inactive
4) CN1C(=O)CC[C@H]1c1cccnc1; inactive
5) c1ccc2ccccc2c1; inactive
6) Clc1ccccc1C(c1ccccc1)(c1ccccc1)n1ccnc1; inactive
